- tested-on: GST-RIPK1 (recombinant GST-RIPK1 kinase domain (residues 1-327)) (Homo sapiens)
- Construct: recombinant GST-RIPK1 kinase domain (residues 1-327) enzyme produced from baculovirus-transfected Sf21 cells
- Sequence (Q13546 1-327): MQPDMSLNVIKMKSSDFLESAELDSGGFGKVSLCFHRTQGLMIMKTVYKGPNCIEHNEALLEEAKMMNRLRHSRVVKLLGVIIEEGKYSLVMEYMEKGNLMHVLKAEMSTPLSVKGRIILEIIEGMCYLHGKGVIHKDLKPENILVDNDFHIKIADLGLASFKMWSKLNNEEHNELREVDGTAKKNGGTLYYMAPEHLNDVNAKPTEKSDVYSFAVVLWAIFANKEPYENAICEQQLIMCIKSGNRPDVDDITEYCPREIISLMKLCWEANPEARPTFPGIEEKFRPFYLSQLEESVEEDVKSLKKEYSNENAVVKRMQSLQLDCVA
- protocol-details: RIPK1-ADP-Glo Enzymatic Assay
- condition-description: ten-point titration, top compound concentration of 100000 nM; 25 nM GST-RIPK1, 300 μM ATP, 3 μM dephosphorylated-MBP; 30 min pre-incubation, 150 min reaction
pEC50: −log10 of the molar value.
value-type: pEC50

O=C1N2[C@@H](CC[C@H]2c2ccccc2)OC12CC(Oc1ccnn3cccc13)C2 (stereo partly shown) | 7.41
O=C1N2[C@@H](CC[C@H]2c2cnccn2)OC12CC(OCc1cccc(F)c1)C2 (single isomer, unassigned) [Example 22.5] | 7.82
N#Cc1cccc(OC2CC3(C2)O[C@@H]2CC[C@@H](c4ccccc4)N2C3=O)c1 (stereo partly shown) | 7.70
CSc1nnc2ccc(COC3CC4(C3)OC3CC[C@@H](c5cnccn5)N3C4=O)cn12 (stereo partly shown) | 6.46
O=C1N2[C@@H](CC[C@H]2c2cnccn2)O[C@]12C[C@@H](Oc1ncnn3cccc13)C2 | 6.63

P: O=C1N2[C@@H](CC[C@H]2c2ccc(F)cc2)OC12CC(OCc1cccnc1)C2 (stereo partly shown)
Q: O=C1N2C(CC[C@H]2c2cnccn2)OC12CC(OCc1ccc(-c3ccon3)cc1)C2 (stereo partly shown) [Example 18.30]
Endpoint returns whichever of P and Q has the numerically higher pEC50. Refer to your chosen item by its label in the answer.
Q
(Q: 7.35, P: 6.73)

###

- tested-on: GST-RIPK1 (recombinant GST-RIPK1 kinase domain (residues 1-327)) (Homo sapiens, UniProt Q13546)
- Construct: recombinant GST-RIPK1 kinase domain (residues 1-327) enzyme produced from baculovirus-transfected Sf21 cells
- protocol-details: RIPK1-ADP-Glo Enzymatic Assay
- condition-description: ten-point titration, top compound concentration of 100000 nM; 25 nM GST-RIPK1, 300 μM ATP, 3 μM dephosphorylated-MBP; 30 min pre-incubation, 150 min reaction
value-type: EC50 (nM)

O=C1N2[C@@H](CC[C@H]2c2cnccn2)O[C@]12C[C@H](OCc1ccccc1)C2 | 49

A: N#CCc1cccc(COC2CC3(C2)OC2CC[C@@H](c4cnccn4)N2C3=O)c1 (some centres unmarked) [Example 18.10]
B: O=C1N2[C@@H](CC[C@H]2c2ccc(F)cc2)O[C@]12C[C@H](Oc1cncc(F)c1)C2
C: O=C1N2C(CC[C@H]2c2cnccn2)OC12CC(OCc1cnc3nncn3c1)C2 (some centres unmarked)
Order the 3 compounds from highest to lowest EC50. Answer by listing the labels in the requested order.
C, B, A

###

- tested-on: GST-RIPK1 (recombinant GST-RIPK1 kinase domain (residues 1-327)) (Homo sapiens, UniProt Q13546)
- Construct: recombinant GST-RIPK1 kinase domain (residues 1-327) enzyme produced from baculovirus-transfected Sf21 cells
- protocol-details: RIPK1-ADP-Glo Enzymatic Assay
- condition-description: ten-point titration, top compound concentration of 100000 nM; 25 nM GST-RIPK1, 300 μM ATP, 3 μM dephosphorylated-MBP; 30 min pre-incubation, 150 min reaction
value-type: EC50 (nM)

Cc1cnn(-c2cnc(COC3CC4(C3)OC3CC[C@@H](c5cnccn5)N3C4=O)cn2)c1 (stereo partly drawn) | 76
NC(=O)c1ccnc(O[C@H]2C[C@@]3(C2)O[C@@H]2CC[C@@H](c4cc(F)cc(F)c4)N2C3=O)c1 | 18
O=C1N2C(CC[C@H]2c2cnccn2)OC12CC(OCc1cnn(-c3ccncc3)c1)C2 (stereo partly drawn) [Example 18.101] | 367

a: O=C1N2[C@@H](CC[C@H]2c2cnccn2)OC12CC(OCC1CCC1)C2 (single isomer, unassigned) [Example 23.1]
b: N#Cc1ccnc(O[C@H]2C[C@@]3(C2)O[C@@H]2CC[C@@H](c4cc(F)cc(F)c4)N2C3=O)n1 [Example 9.20]
c: O=C1N2[C@@H](CC[C@H]2c2cnccn2)OC12CC(OCc1csc3ncccc13)C2 (stereo partly drawn)
d: N#Cc1ccnc(O[C@H]2C[C@@]3(C2)O[C@@H]2CC[C@@H](c4ccccc4)N2C3=O)c1
e: O=C1N2C(CC[C@H]2c2cnccn2)OC12CC(OCc1cccc(Cn3ccnn3)c1)C2 (stereo partly drawn) [Example 18.76]
Order the entries by their reported EC50, beginning at the minimum. Return value: ordered labels per request.
d, c, b, e, a

P: N#Cc1ccc(COC2CC3(C2)OC2CC[C@@H](c4cnccn4)N2C3=O)c2cccnc12 (stereo partly drawn) [Example 18.14]
Q: Cn1cc(C2CCC3OC4(CC(Oc5cc(C#N)ncn5)C4)C(=O)N32)cn1 (single isomer, unassigned) [Example 6.1]
R: Cn1ccc([C@@H]2CC[C@H]3OC4(CC(Oc5cccnc5)C4)C(=O)N32)n1 (stereo partly drawn) [Example 19.11]
// smallest EC50 at index 0, largest at the end The labels, placed in the requested order, form the answer.
P, R, Q
(P: 16 nM, R: 209 nM, Q: 93400 nM)

###

- tested-on: GST-RIPK1 (recombinant GST-RIPK1 kinase domain (residues 1-327)) (Homo sapiens, UniProt Q13546)
- Construct: recombinant GST-RIPK1 kinase domain (residues 1-327) enzyme produced from baculovirus-transfected Sf21 cells
- protocol-details: RIPK1-ADP-Glo Enzymatic Assay
- condition-description: ten-point titration, top compound concentration of 100000 nM; 25 nM GST-RIPK1, 300 μM ATP, 3 μM dephosphorylated-MBP; 30 min pre-incubation, 150 min reaction
pEC50: −log10 of the molar value.
value-type: pEC50

Use these answered entries as a reference point.
O=C1N2C(CC[C@H]2c2cnccn2)OC12CC(OCc1ccc3nc(C4CC4)cn3c1)C2 (stereo partly drawn) [Example 18.73] | 6.95
O=C1N2[C@@H](CC[C@H]2c2ccc(F)cc2)O[C@]12C[C@H](Oc1ccnn3cccc13)C2 | 7.54
N#Cc1cc(O[C@H]2C[C@@]3(C2)O[C@H]2CC[C@H](c4cnccn4)N2C3=O)ncn1 | 6.48
O=C1N2[C@@H](CC[C@H]2c2ccccc2)OC12CC(Oc1cccc(C(F)(F)F)c1)C2 (stereo partly drawn) | 7.43
O=C1N2C(CC[C@H]2c2cnccn2)OC12CC(OCc1cc(Cl)ccc1-c1cnco1)C2 (stereo partly drawn) [Example 18.82] | 7.00

A: O=C1N2C(CC[C@H]2c2cnccn2)OC12CC(OCc1ccc3nc(C(F)(F)F)sc3c1)C2 (stereo partly drawn) [Example 18.48]
B: O=C1N2[C@@H](CC[C@H]2c2cnccn2)O[C@]12C[C@@H](OCc1cccnc1)C2
C: O=C1N2C(CC[C@H]2c2cnccn2)OC12CC(OCc1cnc3c(c1)CCCC3)C2 (stereo partly drawn) [Example 18.90]
D: O=C1N2[C@@H](CC[C@H]2c2cc(F)cc(F)c2)O[C@]12C[C@H](Oc1cc(-n3cccn3)ncn1)C2
E: Cn1ccc([C@@H]2CC[C@H]3OC4(CC(Oc5cncc(Cl)c5)C4)C(=O)N32)n1 (stereo partly drawn) [Example 19.9]
Falling order of pEC50, please. List the labels according to the requested ordering.
D, A, B, E, C
(D: 7.92, A: 7.51, B: 7.00, E: 6.40, C: 6.11)

###

- tested-on: GST-RIPK1 (recombinant GST-RIPK1 kinase domain (residues 1-327)) (Homo sapiens, UniProt Q13546)
- Construct: recombinant GST-RIPK1 kinase domain (residues 1-327) enzyme produced from baculovirus-transfected Sf21 cells
- protocol-details: RIPK1-ADP-Glo Enzymatic Assay
- condition-description: ten-point titration, top compound concentration of 100000 nM; 25 nM GST-RIPK1, 300 μM ATP, 3 μM dephosphorylated-MBP; 30 min pre-incubation, 150 min reaction
pEC50: −log10 of the molar value.
value-type: pEC50

A selection of reference data follows.
N#Cc1ccncc1COC1CC2(C1)OC1CC[C@@H](c3cnccn3)N1C2=O (stereo partly drawn) [Example 18.45] | 6.80
N#Cc1ccnc(O[C@H]2C[C@@]3(C2)O[C@@H]2CC[C@@H](c4ccc(F)cc4)N2C3=O)c1 [Example 9.28] | 7.80
O=C1N2[C@@H](CC[C@H]2c2ccccc2)OC12CCC(Oc1cnccn1)CC2 (mixture of isomers) [Example 9.52] | 7.72
O=C1N2C(CC[C@H]2c2cnccn2)OC12CC(OCc1ccc3cnccc3c1)C2 (stereo partly drawn) [Example 18.37] | 7.82
N#Cc1ccc2c(O[C@H]3C[C@@]4(C3)O[C@@H]3CC[C@@H](c5ccc(F)cc5)N3C4=O)ncnn12 [Example 11.3] | 7.72

A: O=C1N2[C@@H](CC[C@H]2c2ccc(F)cc2)O[C@]12C[C@H](Oc1ncnn3cccc13)C2 [Example 9.27]
B: O=C1N2[C@@H](CC[C@H]2c2ccccc2)OC12CCC(OCc1ccccc1)CC2 (single isomer, unassigned) [Example 1.1]
Among A and B , which shows a numerically higher pEC50 result? Respond using the label that marks the chosen record.
A

1: N#CCc1ncc(COC2CC3(C2)OC2CC[C@@H](c4cnccn4)N2C3=O)cc1Cl (stereo partly drawn) [Example 18.49]
2: Cn1cc(C2CC[C@H]3OC4(CC(Oc5cc(C#N)ncn5)C4)C(=O)N23)cn1 (single isomer, unassigned) [Example 6.3]
Please choose the item with the lower pEC50 value from this pair: 1 and 2 Choose, then provide that item's label.
2
(2: 6.89, 1: 7.23)
